Source listed as patent US20100249071A1.

# assay_system: hS1PR5 (hEdg8) membrane protein (Homo sapiens)
# Sequence (Q9H228 whole entry): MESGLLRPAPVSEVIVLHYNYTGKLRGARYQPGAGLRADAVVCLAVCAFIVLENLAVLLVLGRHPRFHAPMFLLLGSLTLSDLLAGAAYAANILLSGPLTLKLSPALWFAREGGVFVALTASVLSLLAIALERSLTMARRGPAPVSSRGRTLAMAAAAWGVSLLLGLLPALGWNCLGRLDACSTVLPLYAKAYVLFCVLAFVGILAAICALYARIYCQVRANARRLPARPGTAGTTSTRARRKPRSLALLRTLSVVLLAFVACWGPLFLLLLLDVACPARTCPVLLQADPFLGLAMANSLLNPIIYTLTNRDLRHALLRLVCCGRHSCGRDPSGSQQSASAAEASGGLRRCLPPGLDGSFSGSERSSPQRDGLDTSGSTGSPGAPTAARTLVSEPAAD
# assay_name: hS1P5R GTPγS binding assay (Assay 4)

{"columns": ["smiles_data", "assay_system", "EC50"],
 "data": [
  ["Cc1cc(-c2nnc(-c3cc(F)c(OC[C@@H](N)[C@H](C)O)cc3Cl)s2)cnc1NC(C)C", "hS1PR5 (hEdg8) membrane protein (Homo sapiens)", "2800 to 10000 nM"],
  ["CC(C)Oc1ccc(-c2nnc(-c3cc(F)c(OC[C@@H](N)[C@H](C)O)cc3Cl)s2)cc1C#N", "hS1PR5 (hEdg8) membrane protein (Homo sapiens)", "≤ 10 nM"],
  ["CC(C)Oc1ccc(-c2nnc(-c3cc(F)c(OC[C@H](N)[C@@H](C)OP(=O)(O)O)cc3Cl)s2)cc1C#N", "hS1PR5 (hEdg8) membrane protein (Homo sapiens)", "≤ 10 nM"],
  ["CCCOc1ccc(-c2nnc(-c3cc(F)c(OC[C@H](N)CO)cc3Cl)s2)cc1", "hS1PR5 (hEdg8) membrane protein (Homo sapiens)", "250 to 2800 nM"]
]}

---

Items are presented alongside their recorded EC50.
# assay_system: hS1PR5 (hEdg8) membrane protein (Homo sapiens)
# assay_name: hS1P5R GTPγS binding assay (Assay 4)
# Experimental: The hS1PR5 GTPγS binding assay was carried out at room temperature in 96-well non-binding surface assay plates. […] The radioactivity of the bound GTPγS was counted by reading the assay plate using a MicroBeta.
measured_property: EC50

{"columns": ["molecule", "val"],
 "data": [
  ["CC(C)Nc1ccc(-c2nnc(-c3cc(F)c(OCC(N)CO)cc3Cl)s2)cn1 (centres unmarked)", "0.25 to 2.8 µM"],
  ["N[C@H](CO)COc1cc(Cl)c(-c2nnc(-c3cc(Br)cc(Br)c3)s2)cc1F", "2.8 to 10 µM"],
  ["CC(C)Oc1ncc(-c2nnc(-c3cc(F)c(OC[C@@H](N)CO)cc3Cl)s2)cc1Cl", "0.25 to 2.8 µM"],
  ["CC(C)Oc1ccc(-c2nnc(-c3cc(F)c(OC[C@H](N)CO)cc3Cl)s2)cc1C(F)(F)F", "0.01 to 0.05 µM"],
  ["CC(C)Oc1ccc(-c2nnc(-c3cc(F)c(OCC(N)CO)cc3Cl)s2)cn1 (centres unmarked)", "0.25 to 2.8 µM"],
  ["CC(C)Oc1ccc(-c2nnc(-c3cc(F)c(OC[C@@H](N)[C@H](C)O)cc3Cl)s2)cc1Cl", "0.01 to 0.05 µM"],
  ["CC(C)Oc1ccc(-c2nnc(-c3cc(F)c(OC[C@H](N)[C@@H](C)O)cc3Cl)s2)cc1Cl", "0.01 to 0.05 µM"],
  ["CC(C)N(C)c1cc(-c2nnc(-c3cc(F)c(OCC(N)CO)cc3Cl)s2)ccn1 (centres unmarked)", "> 10 µM"],
  ["CC(C)N(C)c1cc(-c2nnc(-c3cc(F)c(OCC(N)CO)cc3Cl)s2)cc(Cl)n1 (centres unmarked)", "0.25 to 2.8 µM"],
  ["CC(C)Oc1ccc(-c2nnc(-c3cc(F)c(OC[C@H](N)COP(=O)(O)O)cc3Cl)s2)cc1Br", "≤ 0.01 µM"],
  ["CC(C)Cc1ccc(-c2nnc(-c3cc(F)c(OC[C@H](N)CO)cc3Cl)s2)cc1", "0.25 to 2.8 µM"],
  ["CC(C)Nc1ccc(-c2nnc(-c3cc(F)c(OC[C@@H](N)[C@H](C)OP(=O)(O)O)cc3Cl)s2)cn1", "0.01 to 0.05 µM"],
  ["CC(C)Oc1ccc(-c2nnc(-c3cc(F)c(OC[C@H](N)[C@H](C)O)cc3Cl)s2)cc1Cl", "0.05 to 0.25 µM"],
  ["CC(C)Nc1ccc(-c2nnc(-c3cc(F)c(OC[C@@H](N)COP(=O)(O)O)cc3Cl)s2)cn1", "≤ 0.01 µM"],
  ["CC(C)Oc1ccc(-c2nnc(-c3cc(F)c(OC[C@@H](N)[C@@H](C)OP(=O)(O)O)cc3Cl)s2)cc1Cl", "≤ 0.01 µM"],
  ["Cc1cc(-c2nnc(-c3cc(F)c(OC[C@@H](N)[C@@H](C)O)cc3Cl)s2)cc(NC(C)C)n1", "0.05 to 0.25 µM"],
  ["Cc1cc(-c2nnc(-c3cc(F)c(OC[C@@H](N)[C@H](C)O)cc3Cl)s2)cc(NC(C)C)n1", "0.05 to 0.25 µM"],
  ["CC(C)Oc1ccc(-c2nnc(-c3cc(F)c(OC[C@@H](N)CO)cc3Cl)s2)cc1Br", "0.01 to 0.05 µM"],
  ["CC(C)Nc1ncc(-c2nnc(-c3cc(F)c(OC[C@H](N)CO)cc3Cl)s2)cn1", "0.25 to 2.8 µM"],
  ["CC(C)Oc1ccc(-c2nnc(-c3cc(F)c(OC[C@H](N)CO)cc3Cl)s2)cc1Cl", "0.01 to 0.05 µM"],
  ["Cc1cc(-c2nnc(-c3cc(F)c(OC[C@H](N)[C@H](C)O)cc3Cl)s2)ccc1OC(C)C", "0.01 to 0.05 µM"],
  ["CC(C)Oc1ccc(-c2nnc(-c3cc(F)c(OC[C@@H](N)CO)cc3Cl)s2)cn1", "0.25 to 2.8 µM"],
  ["COCCOc1ccc(-c2nnc(-c3cc(F)c(OC[C@H](N)CO)cc3Cl)s2)cc1C#N", "0.25 to 2.8 µM"]
]}
